- test-system: Msn1 (UniProt P22148)
- Sequence: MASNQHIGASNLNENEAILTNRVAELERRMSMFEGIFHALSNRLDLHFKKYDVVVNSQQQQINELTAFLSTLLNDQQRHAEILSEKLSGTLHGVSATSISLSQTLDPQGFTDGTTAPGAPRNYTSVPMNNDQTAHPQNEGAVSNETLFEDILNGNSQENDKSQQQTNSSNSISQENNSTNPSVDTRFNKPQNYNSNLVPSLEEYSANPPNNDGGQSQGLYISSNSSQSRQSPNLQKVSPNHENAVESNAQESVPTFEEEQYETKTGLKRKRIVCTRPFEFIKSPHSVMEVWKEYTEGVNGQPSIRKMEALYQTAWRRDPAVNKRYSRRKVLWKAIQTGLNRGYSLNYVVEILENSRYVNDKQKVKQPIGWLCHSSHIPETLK
- assay-remarks: PBM E-score (8-mer binding enrichment) (E-score (-0.5 to 0.5)); higher = stronger / more preferred TF binding
- study-conditions: protein concentration: 200 nM; construct: GST-full length
Whole data set: some 33,000 sequences, median “E-score (-0.5 to 0.5)” near -0.013, cut for the highest 2% near 0.3. This excerpt belongs to a sample that is enriched for the highest values.
# Lookup of reported PBM E-score keyed by entry
endpoint: PBM E-score

> print(dat)
   sequence.input            test.system  readout.number
1        ACGATAGT  Msn1 (UniProt P22148)          0.0402
2        CACTAGCA  Msn1 (UniProt P22148)         -0.0794
3        CAGGACAC  Msn1 (UniProt P22148)           0.407
4        GAGGACAA  Msn1 (UniProt P22148)           0.466
5        CGTAAGTA  Msn1 (UniProt P22148)          0.0282
6        ATGAAGTC  Msn1 (UniProt P22148)         -0.0197

---

- test-system: Msn1 (UniProt P22148)
- Sequence: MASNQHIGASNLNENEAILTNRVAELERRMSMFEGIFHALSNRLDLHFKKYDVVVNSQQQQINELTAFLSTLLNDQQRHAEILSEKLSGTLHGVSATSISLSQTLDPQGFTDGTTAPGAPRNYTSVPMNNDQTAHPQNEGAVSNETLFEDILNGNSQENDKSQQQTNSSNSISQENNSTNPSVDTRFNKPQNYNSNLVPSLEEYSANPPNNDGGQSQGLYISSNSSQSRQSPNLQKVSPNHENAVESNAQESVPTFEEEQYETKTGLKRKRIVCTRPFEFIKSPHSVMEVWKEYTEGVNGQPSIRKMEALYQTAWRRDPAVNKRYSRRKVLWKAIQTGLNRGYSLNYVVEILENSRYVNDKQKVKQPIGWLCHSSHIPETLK
- assay-remarks: PBM E-score (8-mer binding enrichment) (E-score (-0.5 to 0.5)); higher = stronger / more preferred TF binding
- study-conditions: protein concentration: 200 nM; construct: GST-full length
Whole data set: some 33,000 sequences, median “E-score (-0.5 to 0.5)” near -0.013, cut for the highest 2% near 0.3. This excerpt belongs to a sample that is enriched for the highest values.
endpoint: PBM E-score

> print(dat)
    sequence.input  readout.number
 1        ACAAATTA           0.357
 2        TGTCCACA           0.455
 3        ATAAATTG           0.225
 4        GACCTATC          0.0973
 5        GGCTAAGA          0.0666
 6        CACCCCGC         -0.0608
 7        AGCCTACA          -0.135
 8        AGCCCGCG          -0.185
 9        AGCAATTG         0.00301
10        ACCTGTCT          0.0544
11        GTTGATTA           0.135
12        AAGACATT           0.414
13        TCGGACGA           0.199
14        AAGACACT           0.163
15        ATGTCTCG           0.333
16        TCGGACAA           0.457
17        GCCAAAGC         -0.0464
18        CTCGCGAC          0.0116
19        ACGGACCA          0.0706
20        TGGGAGAA          -0.209
21        ATAAATTA           0.343
22        CGGACCGA           0.165
23        GGGGACCA          -0.223
24        GCATGTAA           -0.12
25        AGGACAGG            0.28
26        ATTGTGTC           0.314
27        CTCTACGA          0.0394
28        AAGACAGT          0.0956
29        AACGAATA         -0.0354
30        GGCGGCCA          -0.161
31        CTTGTGTC           0.304
32        ACGACACG           0.206
33        CCACTTAC          -0.133
34        GAGGGCCA          -0.104
35        ACATGTTG           0.235
36        AAGCCGCA         -0.0983
37        ATTCGTCG          0.0922
38        CCATGAAG          0.0685
39        AATTTCCT          0.0244
40        ACATGTCG           0.311
41        CAGACATC           0.246
42        CAGGTTGG          -0.102
43        GGGGACAC            0.28
44        ATGTCTCC           0.302
45        GCGGACCA          0.0483
46        AGTCCACG          -0.059
47        ATGGTGGG          -0.316

---

- test-system: Msn1 (UniProt P22148)
- Sequence: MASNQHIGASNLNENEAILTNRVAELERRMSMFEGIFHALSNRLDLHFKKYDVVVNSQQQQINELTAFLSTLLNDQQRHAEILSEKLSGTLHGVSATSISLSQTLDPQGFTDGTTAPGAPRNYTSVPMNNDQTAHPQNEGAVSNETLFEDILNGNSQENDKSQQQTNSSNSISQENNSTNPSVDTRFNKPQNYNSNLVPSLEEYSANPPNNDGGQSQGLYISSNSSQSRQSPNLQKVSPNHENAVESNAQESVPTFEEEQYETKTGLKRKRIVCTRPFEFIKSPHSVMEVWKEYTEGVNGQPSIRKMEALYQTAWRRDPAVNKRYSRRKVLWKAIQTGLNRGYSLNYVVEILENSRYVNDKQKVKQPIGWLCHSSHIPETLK
- assay-remarks: PBM E-score (8-mer binding enrichment) (E-score (-0.5 to 0.5)); higher = stronger / more preferred TF binding
- study-conditions: protein concentration: 200 nM; construct: GST-full length
The full ranking holds about 33,000 sequences; the median of “E-score (-0.5 to 0.5)” is about -0.013, and the highest 2% start at about 0.3. The sample holds the highest values, similar sequences and a random draw of the others, so the mix is not that of the screen.
Label rule, in plain words: PBM E-score of 0.08 and up is met, under 0.08 is not met.

> print(dat)
    sequence.input            test.system  label.class
 1        GCGGTCCC  Msn1 (UniProt P22148)      not met
 2        ATTGTCCC  Msn1 (UniProt P22148)          met
 3        CCGGGATA  Msn1 (UniProt P22148)          met
 4        CGATGTCA  Msn1 (UniProt P22148)      not met
 5        GTTTGTCA  Msn1 (UniProt P22148)          met
 6        CTATGTCA  Msn1 (UniProt P22148)          met
 7        CCCTGCCG  Msn1 (UniProt P22148)      not met
 8        GAGGGTAA  Msn1 (UniProt P22148)      not met
 9        CAGGTGGA  Msn1 (UniProt P22148)      not met
10        CCAACGGA  Msn1 (UniProt P22148)      not met
11        ATATGTCG  Msn1 (UniProt P22148)          met
12        TCCGACAA  Msn1 (UniProt P22148)          met
